study_system: recombinant human Mcl-1 (residues 171-327) / Bim interaction (Homo sapiens (Human))
Sequence (Q07820 171-327): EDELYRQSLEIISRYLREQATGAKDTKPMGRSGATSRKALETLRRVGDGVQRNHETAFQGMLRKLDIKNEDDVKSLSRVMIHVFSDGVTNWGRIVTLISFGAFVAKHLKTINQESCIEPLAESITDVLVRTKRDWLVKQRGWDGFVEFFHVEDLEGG
method: biochemical
Type: binding
condition_summary: TR-FRET, Mcl-1(171-327) / biotin-Bim (51-76); read-out: Mcl-1 HTRF IC50
readout_kind: pIC50
One number for each entry, as −log10 of the molar value.

Here's what some known entries look like.
| compound | study_system | pIC50 |
| --- | --- | --- |
| C[C@@H]1[C@@H](C)CCC[C@](O)(c2nccn2C)[C@@H]2CC[C@H]2CN2C[C@@]3(CCCc4cc(Cl)ccc43)COc3ccc(cc32)C(=O)NS1(=O)=O [Example 100223] | recombinant human Mcl-1 (residues 171-327) / Bim interaction (Homo sapiens (Human)) | 8.85 |
| C[C@@H]1[C@@H](C)C/C=C/[C@](O)(COCCN2CCOCC2)[C@@H]2CC[C@H]2CN2C[C@@]3(CCCc4cc(Cl)ccc43)COc3ccc(cc32)C(=O)NS1(=O)=O [Example 100356] | recombinant human Mcl-1 (residues 171-327) / Bim interaction (Homo sapiens (Human)) | 10.08 |

Attention now shifts to the item below.
Give the value of pIC50 reported for the following: COCC[C@@H]1[C@@H](C)C/C=C/[C@](C=O)(OC)[C@@H]2CC[C@H]2CN2C[C@@]3(CCCc4cc(Cl)ccc43)COc3ccc(cc32)C(=O)NS1(=O)=O [Example 100520]
9.26

====

study_system: recombinant human Mcl-1 (residues 171-327) / Bim interaction (Homo sapiens (Human))
method: biochemical
Assay type: binding
condition_summary: TR-FRET, Mcl-1(171-327) / biotin-Bim (51-76); read-out: Mcl-1 HTRF IC50
Assignment: determine reported pIC50 for the given compounds.
Answers are plain numbers, as −log10 of the molar value.

Here's what some known entries look like.
| compound | study_system | pIC50 |
| --- | --- | --- |
| C[C@@H]1[C@@H](C)CCC[C@](CO)(NC(=O)c2ccccc2)[C@@H]2CC[C@H]2CN2C[C@@]3(CCCc4cc(Cl)ccc43)COc3ccc(cc32)C(=O)NS1(=O)=O [Example 100256] | recombinant human Mcl-1 (residues 171-327) / Bim interaction (Homo sapiens (Human)) | 8.30 |
| COCc1nc(C[C@]2(OC)/C=C/C[C@H](C)[C@@H](C)S(=O)(=O)NC(=O)c3ccc4c(c3)N(C[C@@H]3CC[C@H]32)C[C@@]2(CCCc3cc(Cl)ccc32)CO4)oc1C [Example 100585] | recombinant human Mcl-1 (residues 171-327) / Bim interaction (Homo sapiens (Human)) | 10.24 |
| CO[C@@]1(CS(=O)(=O)C(C)C)/C=C/C[C@H](C)[C@@H](C)S(=O)(=O)NC(=O)c2ccc3c(c2)N(C[C@@H]2CC[C@H]21)C[C@@]1(CCCc2cc(Cl)ccc21)CO3 (stereo in doubt) [Example 100315] | recombinant human Mcl-1 (residues 171-327) / Bim interaction (Homo sapiens (Human)) | 9.70 |

Go through the items and report each one's pIC50.
1. CO[C@@]1(Cc2nnc(C)o2)/C=C/C[C@H](C)[C@@H](C)S(=O)(=O)NC(=O)c2ccc3c(c2)N(C[C@@H]2CC[C@H]21)C[C@@]1(CCCc2cc(Cl)ccc21)CO3 [Example 100512]
2. C[C@@H]1[C@@H](C)C/C=C/[C@@](O)(C#N)[C@@H]2CC[C@H]2CN2C[C@@]3(CCCc4cc(Cl)ccc43)COc3ccc(cc32)C(=O)NS1(=O)=O [Example 100235]
3. C[C@@H]1[C@@H](C)CCC[C@](O)(CC(=O)Nc2ccncn2)[C@@H]2CC[C@H]2CN2C[C@@]3(CCCc4cc(Cl)ccc43)COc3ccc(cc32)C(=O)NS1(=O)=O [Example 100174]
4. C[C@]1(O)CCCCCS(=O)(=O)NC(=O)c2ccc3c(c2)N(C[C@@H]2CC[C@H]21)C[C@@]1(CCCc2cc(Cl)ccc21)CO3 [Example 100023]
5. CC[C@@H]1CCCC[C@](CO)(OC)[C@@H]2CC[C@H]2CN2C[C@@]3(CCCc4cc(Cl)ccc43)COc3ccc(cc32)C(=O)NS1(=O)=O [Example 100041]

1. 9.38
2. 8.87
3. 8.69
4. 8.40
5. 8.47

Go through the items and report each one's pIC50.
1. C[C@@H]1[C@@H](C)C/C=C/[C@](O)(C#N)[C@@H]2CC[C@H]2CN2C[C@@]3(CCCc4cc(Cl)ccc43)COc3ccc(cc32)C(=O)NS1(=O)=O [Example 100237]
2. CO[C@@]1(CC(=O)N2CC[C@@H](N(C)C)C2)/C=C/C[C@H](C)[C@@H](C)S(=O)(=O)NC(=O)c2ccc3c(c2)N(C[C@@H]2CC[C@H]21)C[C@@]1(CCCc2cc(Cl)ccc21)CO3 (single isomer, unassigned) [Example 100318]

[8.76, 10.02]
